Target: Type-1 angiotensin II receptor (Homo sapiens)
Sequence (P30556 whole entry): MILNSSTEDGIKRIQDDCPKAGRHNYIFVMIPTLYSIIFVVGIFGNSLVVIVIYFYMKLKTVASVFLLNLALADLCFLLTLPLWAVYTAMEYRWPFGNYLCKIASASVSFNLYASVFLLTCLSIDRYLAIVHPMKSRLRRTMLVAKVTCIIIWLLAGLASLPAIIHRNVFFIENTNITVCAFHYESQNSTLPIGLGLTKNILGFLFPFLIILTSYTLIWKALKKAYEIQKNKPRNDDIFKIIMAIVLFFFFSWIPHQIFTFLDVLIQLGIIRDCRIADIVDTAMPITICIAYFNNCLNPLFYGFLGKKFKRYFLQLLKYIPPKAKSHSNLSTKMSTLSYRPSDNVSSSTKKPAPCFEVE
Assay: AT1 receptor antagonists, dose response, selectivity assay for APJ receptor antagonist project, cell-based, uHTS hits (AID 463214);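 also: antagonist potency against angiotensin II stimulated AT1 response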
Assay type: functional
Active and inactive are the calls of the source. Rule as the data show it: active = IC50 of 20 µM or less and inactive = more.
property-measured: IC50

# count of solved cases: 5
1) C/C(=N\NC(=O)COc1ccccc1-c1ccccc1)c1ccccn1 : 3.73 µM (active)
2) O=[N+]([O-])c1ccc(O)c(/C=N/Nc2ccc(Cl)nn2)c1 : 3.63 µM (active)
3) Cc1ccc(NCC(=O)c2ccccc2)cc1Cl : 5.7 µM (active)
4) Cc1ccc(SSc2cc(C)ccc2N)c(N)c1 : > 40 µM (not active)
5) Cc1ccc2c(c1)C(=O)C(=O)N2c1ccc(Cl)cc1 : 33.2 µM (not active)

# input Give the measured IC50 for S=C(N/N=C/c1ccc(Cl)cc1)N1CCOCC1
# output 7.99 µM (active)

meta.source: ChEMBL document CHEMBL1201862
